System: Bacillus cereus
Test: Antimicrobial activity against Bacillus cereus ATCC 9139 after 24 hrs by broth microdilution method
Format: functional
Settings: ATCC 9139, 24 h
readout name: MIC (µg/mL)

{"molecule": "CC1(C)CC[C@]2(C(=O)O)CC[C@]3(C)C(=C2C1)C=C[C@@H]1[C@@]2(C)CC[C@@H](O)[C@@](C)(C=O)[C@@H]2CC[C@]13C [FATSICARPAIN C]", "readout name": "MIC", "measurement unit": "µg/mL", "measured value": 32}
{"molecule": "CO[C@@H]1C=C2[C@@H]3CC(C)(C)CC[C@]3(C(=O)O)CC[C@@]2(C)[C@]2(C)CC[C@H]3C(C)(C)[C@H](O)CC[C@]3(C)[C@@H]12 [FATSICARPAIN F]", "readout name": "MIC", "measurement unit": "µg/mL", "measured value": 2}
{"molecule": "CC1(C)CC[C@]2(C(=O)O)CC[C@]3(C)C(=CC=C4[C@@]5(C)CC[C@@H](O)C(C)(C)[C@@H]5CC[C@]43C)[C@@H]2C1 [FATSICARPAIN D]", "readout name": "MIC", "measurement unit": "µg/mL", "measured value": 8}

(A) CC1(C)C=C2[C@H]3C[C@@H](O)[C@@H]4[C@@]5(C)CC[C@@H](O)C(C)(C)[C@@H]5CC[C@@]4(C)[C@]3(C)CC[C@@]2(C(=O)O)CC1 [FATSICARPAIN E]
(B) CC1(C)CC[C@]2(C(=O)O)CC[C@]3(C)C(=C2C1)C=C[C@@H]1[C@@]2(C)CC[C@@H](O)[C@@](C)(CO)[C@@H]2CC[C@]13C [FATSICARPAIN A]
IN: Higher MIC between A and B ? Reply with the label of the item you choose.
OUT: A
(A: 64 µg/mL, B: 32 µg/mL)
